Provide the recorded Plant response rating, Ryegrass, Italian for the entries that follow.
tested on: Italian ryegrass (Lolium multiflorum); test: Test B pre-/postemergence plant response; assay type: in vivo; settings: Postemergence, 16 g ai/ha; scale 0 to 100
Keep the answer to the number alone.

Prompt: Can you share its Plant response rating, Ryegrass, Italian? I mean this compound: `CCc1cc(-c2ccc(Cl)cc2)nn1-c1c(OC(=O)OC(C)C)cnn(C)c1=O`
Completion: 98

Prompt: Can you share its Plant response rating, Ryegrass, Italian? I mean this compound: `Cc1cc(-c2ccc(Cl)cc2)nn1-c1c(OC(=O)OCC(C)C)cnn(C)c1=O`
Completion: 95

Prompt: Can you share its Plant response rating, Ryegrass, Italian? I mean this compound: `CCc1cc(-c2ccc(C(F)(F)F)cc2)nn1-c1c(OS(C)(=O)=O)cnn(C)c1=O`
Completion: 98

Prompt: Can you share its Plant response rating, Ryegrass, Italian? I mean this compound: `Cc1cc(-c2ccc(Cl)cc2)nn1-c1c(OS(C)(=O)=O)cnn(C)c1=O`
Completion: 30

Prompt: Can you share its Plant response rating, Ryegrass, Italian? I mean this compound: `CCc1cc(-c2ccc(Cl)c(Cl)c2)nn1-c1c(O)cnn(C)c1=O`
Completion: 55
